assay_protocol: The drug is tested on WLS-098 corresponding to human gut metagenome with ENA study accession number: PRJEB37062 and ENA sample accession number: ERS12561754 for biotransformation under anaerobic condition. The drug concentrations were measured over 9 timepoints collected between 0 and 24 hours of incubation by liquid-chromatography-coupled mass spectrometry (LC–MS); also: call rule not given here
setup_conditions: 2 µM
measured_endpoint: Bacterial Biotransformation

{"compound": "COc1ccc2c(c1OC)C(=O)O[C@@H]2[C@H]1c2c(cc3c(c2OC)OCO3)CCN1C", "recorded_measurement": "Compound metabolized"}
{"compound": "CCc1nc(N)nc(N)c1-c1ccc(Cl)cc1", "recorded_measurement": "Compound metabolized"}
{"compound": "Cc1ccc(-c2cc(C(F)(F)F)nn2-c2ccc(S(N)(=O)=O)cc2)cc1", "recorded_measurement": "Compound NOT metabolized"}
{"compound": "C#C[C@]1(O)CC[C@H]2[C@@H]3CCC4=CC(=O)CC[C@@H]4[C@H]3CC[C@@]21CC", "recorded_measurement": "Compound metabolized"}
{"compound": "OC(Cn1cncn1)(Cn1cncn1)c1ccc(F)cc1F", "recorded_measurement": "Compound metabolized"}
{"compound": "CC(Oc1c(Cl)cccc1Cl)C1=NCCN1 (centres undefined)", "recorded_measurement": "Compound metabolized"}
{"compound": "CC[C@H](C)C(=O)O[C@H]1C[C@@H](C)C=C2C=C[C@H](C)[C@H](CC[C@@H]3C[C@@H](O)CC(=O)O3)[C@H]21", "recorded_measurement": "Compound NOT metabolized"}
{"compound": "Clc1ccc(Cn2c(CN3CCCC3)nc3ccccc32)cc1", "recorded_measurement": "Compound metabolized"}
{"compound": "CNC(=C[N+](=O)[O-])NCCSCc1csc(CN(C)C)n1", "recorded_measurement": "Compound metabolized"}
{"compound": "COc1ccccc1OCC(O)CN1CCN(CC(=O)Nc2c(C)cccc2C)CC1 (centres undefined)", "recorded_measurement": "Compound NOT metabolized"}
{"compound": "CCN(CC)CCOC(=O)C(Cc1cccc2ccccc12)CC1CCCO1.O=C(O)C(=O)O (centres undefined) [NAFRONYL OXALATE]", "recorded_measurement": "Compound metabolized"}
{"compound": "O=C(O)COCCN1CCN(C(c2ccccc2)c2ccc(Cl)cc2)CC1 (centres undefined)", "recorded_measurement": "Compound metabolized"}
{"compound": "CCCCc1nc(Cl)c(CO)n1Cc1ccc(-c2ccccc2-c2nn[nH]n2)cc1", "recorded_measurement": "Compound metabolized"}
{"compound": "COc1ccccc1N1CCN(CC(O)COc2cccc3ccccc23)CC1 (centres undefined)", "recorded_measurement": "Compound NOT metabolized"}
{"compound": "CC(C)NCC(O)COc1ccc(CCOCC2CC2)cc1 (centres undefined)", "recorded_measurement": "Compound metabolized"}
{"compound": "CNS(=O)(=O)Cc1ccc2[nH]cc(CCN(C)C)c2c1.O=C(O)CCC(=O)O [SUMATRIPTAN SUCCINATE]", "recorded_measurement": "Compound metabolized"}
{"compound": "COc1cc2c(c(OC)c1OC)-c1ccc(OC)c(=O)cc1[C@@H](NC(C)=O)CC2", "recorded_measurement": "Compound NOT metabolized"}
{"compound": "O=C(O)CCc1nc(-c2ccccc2)c(-c2ccccc2)o1", "recorded_measurement": "Compound metabolized"}
{"compound": "CN(C)CC(c1ccc(O)cc1)C1(O)CCCCC1.O=C(O)CCC(=O)O (centres undefined) [DESVENLAFAXINE SUCCINATE]", "recorded_measurement": "Compound NOT metabolized"}
{"compound": "CN1CCN(CC/C=C2/c3ccccc3Sc3ccc(S(=O)(=O)N(C)C)cc32)CC1", "recorded_measurement": "Compound metabolized"}
{"compound": "CN1C(=O)CCS(=O)(=O)C1c1ccc(Cl)cc1 (centres undefined)", "recorded_measurement": "Compound NOT metabolized"}
{"compound": "COCCc1ccc(OCC(O)CNC(C)C)cc1.COCCc1ccc(OCC(O)CNC(C)C)cc1.O=C(O)C(O)C(O)C(=O)O (centres undefined) [METOPROLOL TARTRATE]", "recorded_measurement": "Compound metabolized"}
{"compound": "CN1CCc2c(c3ccccc3n2Cc2ccccc2)C1.CN1CCc2c(c3ccccc3n2Cc2ccccc2)C1.O=S(=O)(O)c1cccc2c(S(=O)(=O)O)cccc12", "recorded_measurement": "Compound NOT metabolized"}
{"compound": "CN1CC(=O)N2[C@H](c3ccc4c(c3)OCO4)c3[nH]c4ccccc4c3C[C@@H]2C1=O", "recorded_measurement": "Compound metabolized"}
{"compound": "O=P(O)(O)O.c1ccc(CN(CC2=NCCN2)c2ccccc2)cc1 [ANTAZOLINE PHOSPHATE]", "recorded_measurement": "Compound metabolized"}
{"compound": "C[C@@H]1C[C@H]2[C@@H]3CCC4=CC(=O)C=C[C@]4(C)[C@@]3(F)[C@@H](O)C[C@]2(C)[C@@]1(O)C(=O)CO", "recorded_measurement": "Compound NOT metabolized"}
{"compound": "COc1ccc(CCN(C)CCCC(C#N)(c2ccc(OC)c(OC)c2)C(C)C)cc1OC (centres undefined)", "recorded_measurement": "Compound metabolized"}
{"compound": "Nc1ccc(/N=N/c2ccccc2)c(N)n1", "recorded_measurement": "Compound metabolized"}
{"compound": "CCCc1nc(C(C)(C)O)c(C(=O)OCc2oc(=O)oc2C)n1Cc1ccc(-c2ccccc2-c2nnn[nH]2)cc1", "recorded_measurement": "Compound NOT metabolized"}
{"compound": "Nc1c2c(nc3ccccc13)CCCC2", "recorded_measurement": "Compound metabolized"}
{"compound": "CCN1CCCC1CNC(=O)c1cc(S(N)(=O)=O)ccc1OC (centres undefined) [SULPIRIDE]", "recorded_measurement": "Compound metabolized"}
{"compound": "NS(=O)(=O)c1cc2c(cc1Cl)N=C(CSCc1ccccc1)NS2(=O)=O [BENZTHIAZIDE]", "recorded_measurement": "Compound NOT metabolized"}
{"compound": "NC(CO)(CO)CO.O=C(c1ccccc1)c1ccc2n1CCC2C(=O)O (centres undefined)", "recorded_measurement": "Compound metabolized"}
{"compound": "CS(=O)(=O)O.O.O.O.O=C1Cc2cc(CCN3CCN(c4nsc5ccccc45)CC3)c(Cl)cc2N1 [ZIPRASIDONE MESYLATE]", "recorded_measurement": "Compound metabolized"}

Measured values drawn from ChEMBL document CHEMBL5724914 for this set.
